Target System: T1, ADI-70327
T1 construct: anti-CD3 antibody made in CHO cells, captured by anti-human Fc
T1 sequence (VH, as listed by the source limits assumed, chain 1 of 2): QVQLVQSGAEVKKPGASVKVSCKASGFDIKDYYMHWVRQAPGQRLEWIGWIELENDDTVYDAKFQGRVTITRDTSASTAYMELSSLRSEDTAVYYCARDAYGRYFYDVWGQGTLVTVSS
T1 sequence (VL, as listed by the source limits assumed, chain 2 of 2): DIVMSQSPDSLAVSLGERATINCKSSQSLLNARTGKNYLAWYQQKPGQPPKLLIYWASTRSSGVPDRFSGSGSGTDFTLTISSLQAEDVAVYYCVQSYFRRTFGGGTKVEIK
Procedure Summary: SPR Carterra avidity, yeast anti-ID
pKd: −log10 of the molar value.

{"Binder": "ADI-34138 (antibody, V domains shown, anti-ID IgG) VH: QVQLVQSGAEVKKPGSSVKVSCKASGGTFSSYAISWVRQAPGQGLEWMGGIIPIFGTANYAQKFQGRVTITADESTSTAYMELSSLRSEDTAVYYCARGAPNYYGSGGYDDGWFDPWGQGTLVTVSS VL: EIVMTQSPGTLSLSPGERATLSCRASQSVSSSYLAWYQQKPGQAPRLLIYGASNRATGIPDRFSGSGSGTDFTLTISRLEPEDFAVYYCQQAHTALWTFGGGTKVEIK", "pKd": 6.80}
{"Binder": "ADI-30242 (antibody, V domains shown, anti-ID IgG) VH: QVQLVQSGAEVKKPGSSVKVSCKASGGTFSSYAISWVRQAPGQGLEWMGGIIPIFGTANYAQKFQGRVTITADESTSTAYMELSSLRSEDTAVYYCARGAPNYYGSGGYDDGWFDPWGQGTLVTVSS VL: EIVLTQSPGTLSLSPGERATLSCRASQSVSSSYLAWYQQKPGQAPRLLIYGASSRATGIPDRFSGSGSGTDFTLTISRLEPEDFAVYYCQQFGRDPTFGGGTKVEIK", "pKd": 7.35}
{"Binder": "ADI-34134 IgG (antibody, V domains shown) VH: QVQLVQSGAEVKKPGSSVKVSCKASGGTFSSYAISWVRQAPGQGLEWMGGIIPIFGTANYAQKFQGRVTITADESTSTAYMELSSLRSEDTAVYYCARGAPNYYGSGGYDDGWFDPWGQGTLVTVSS VL: EIVLTQSPGTLSLSPGERATLSCRASQSVSSDYLAWYQQKPGQAPRLLIYGASSRATGIPDRFSGSGSGTDFTLTISRLEPEDFAVYYCQQFGRVPTFGGGTKVEIK", "pKd": 7.85}
{"Binder": "ADI-34137 (antibody, V domains shown, anti-ID IgG) VH: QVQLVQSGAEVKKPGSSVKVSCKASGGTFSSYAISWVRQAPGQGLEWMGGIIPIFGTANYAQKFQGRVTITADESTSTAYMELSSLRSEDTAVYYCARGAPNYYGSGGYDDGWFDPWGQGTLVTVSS VL: EIVLTQSPGTLSLSPGERATLSCRASQSVSSSYLAWYQQKPGQAPRLLIYGASSRATGIPDRFSGSGSGTDFTLTISRLEPEDFAVYYCQQFGRFPTFGGGTKVEIK", "pKd": 9.02}
